# target-under-test: human factor XIa (Homo sapiens, UniProt P03951)
# Construct: purchased Haematologic Technologies (Essex Junction, Vt.); host or cells: human plasma
# Sequence (P03951 19-387 limits assumed): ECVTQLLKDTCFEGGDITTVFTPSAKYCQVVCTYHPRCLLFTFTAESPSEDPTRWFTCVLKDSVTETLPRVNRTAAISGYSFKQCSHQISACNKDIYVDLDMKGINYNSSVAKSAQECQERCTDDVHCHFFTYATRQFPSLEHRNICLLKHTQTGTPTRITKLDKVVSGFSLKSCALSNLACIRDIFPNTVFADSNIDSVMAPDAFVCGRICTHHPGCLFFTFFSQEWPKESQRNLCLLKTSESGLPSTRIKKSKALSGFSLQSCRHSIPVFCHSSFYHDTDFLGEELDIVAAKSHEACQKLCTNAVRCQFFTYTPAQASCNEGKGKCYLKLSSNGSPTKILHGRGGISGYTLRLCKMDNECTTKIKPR
# Sequence (P03951 388-625 limits assumed): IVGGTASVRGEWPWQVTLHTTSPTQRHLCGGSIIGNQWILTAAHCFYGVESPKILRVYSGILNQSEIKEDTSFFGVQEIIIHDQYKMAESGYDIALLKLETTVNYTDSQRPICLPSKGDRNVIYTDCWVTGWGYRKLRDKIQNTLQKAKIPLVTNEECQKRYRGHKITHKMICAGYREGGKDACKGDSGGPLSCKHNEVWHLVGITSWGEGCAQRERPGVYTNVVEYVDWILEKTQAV
# experimental-protocol: Direct inhibition of factor XIa, chromogenic substrate S-2366 hydrolysis assay
# Assay type: biochemical
# test-conditions: sulfated QAOs
readout: ΔY % (efficacy)
Answer format reminder: number followed by unit.

Use these answered entries as a reference point.
{"compound": "O=c1c2ccccc2nc(-c2ccc(OS(=O)(=O)O)cc2)n1Cc1cn(CCn2cc(Cn3c(-c4ccc(OS(=O)(=O)O)cc4)nc4ccccc4c3=O)nn2)nn1 [Inhibitor 28S]", "measured-value": "98 ± 3%"}
{"compound": "O=c1c2ccccc2nc(-c2ccc(OS(=O)(=O)O)cc2)n1CCCCn1cc(Cn2c(-c3cccc(OS(=O)(=O)O)c3)nc3ccccc3c2=O)nn1 [Inhibitor 12S]", "measured-value": "88 ± 3%"}

Moving on to the next compound.
Request: Given the compound COc1cc(-c2nc3ccccc3c(=O)n2CCCCn2cc(Cn3c(-c4cccc(OS(=O)(=O)O)c4)nc4ccccc4c3=O)nn2)ccc1OS(=O)(=O)O [Inhibitor 17S] , what is its reported ΔY % (efficacy)?
Response: 88 ± 5%
